- target.desc: UniProt P29990
- Sequence (P29990 1346-1475 limits assumed): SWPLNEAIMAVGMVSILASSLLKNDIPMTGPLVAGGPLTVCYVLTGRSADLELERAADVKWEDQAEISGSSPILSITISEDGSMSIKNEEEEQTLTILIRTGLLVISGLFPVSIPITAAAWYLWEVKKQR
- Sequence (P29990 1476-2093 limits assumed): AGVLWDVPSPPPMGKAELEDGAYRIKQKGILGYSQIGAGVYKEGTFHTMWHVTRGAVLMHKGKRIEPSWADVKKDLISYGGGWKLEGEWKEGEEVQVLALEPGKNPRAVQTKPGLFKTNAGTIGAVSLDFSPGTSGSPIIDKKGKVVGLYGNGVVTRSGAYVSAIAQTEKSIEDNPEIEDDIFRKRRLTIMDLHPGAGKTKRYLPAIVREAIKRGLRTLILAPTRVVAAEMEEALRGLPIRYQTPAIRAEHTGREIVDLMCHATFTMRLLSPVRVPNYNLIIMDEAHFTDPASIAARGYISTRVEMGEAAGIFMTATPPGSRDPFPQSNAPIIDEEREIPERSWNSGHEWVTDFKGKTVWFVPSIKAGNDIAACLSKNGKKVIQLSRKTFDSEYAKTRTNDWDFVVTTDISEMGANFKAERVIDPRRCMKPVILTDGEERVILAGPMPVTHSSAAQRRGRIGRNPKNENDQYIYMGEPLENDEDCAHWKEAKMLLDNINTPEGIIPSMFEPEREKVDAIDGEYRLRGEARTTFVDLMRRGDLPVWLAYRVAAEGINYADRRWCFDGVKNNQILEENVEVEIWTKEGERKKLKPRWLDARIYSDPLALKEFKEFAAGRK
- Assay type: functional, Thailand/16681/1984
metric.name: IC50

1. CCC(C)(C)C(=O)N[C@H](C(=O)Nc1cccc(CN)c1)c1ccc(OCc2ccccc2)cc1; > 99.5 µM
2. COCc1cc(Cl)cc(S(=O)(=O)Nc2cccc(-c3nnn[nH]3)c2)c1; > 99.5 µM
3. C#CCn1ccnc(N2CC[C@H](CO)C2)c1=O; > 99.5 µM
4. CN(C)Cc1cc(NC(=O)[C@@H](NC(=O)OCc2ccccc2)c2ccc(OCc3ccccc3)cc2)ccc1Cl; > 99.5 µM
5. O=C(Nc1ccc2c(c1)CNC2)N1CC[C@H](Oc2ccc(C3CC3)cn2)C1; > 99.5 µM
6. NCc1cccc(NC(=O)[C@@H]2CCC[C@@H](NC(=O)OCc3ccccc3)C2)c1; > 99.5 µM
7. CCNC(=O)Nc1cc(Cl)cc(C(=O)Nc2cc(C)cc(CN)c2)c1; > 99.5 µM
8. NCc1cccc(NC(=O)[C@@H](NC(=O)OCc2ccccc2)c2ccc(OC[C@H]3CCCCO3)cc2)c1; > 99.5 µM
9. O=C(N[C@@H](C(=O)NCc1cccc2c1CCNC2)c1ccc(OCc2ccccc2)cc1)OCc1ccccc1; 53.5 µM
10. O=C(c1cc(Cl)cc2[nH]ncc12)N1CC[C@]2(CCNC2)C1; > 99.5 µM
11. CCc1cnccc1-c1nc2c(C(=O)Nc3ccc4c(c3)CNC4)cc(Cl)cc2[nH]1; > 99.5 µM
12. O=C1Cc2c(cccc2C(=O)N[C@H]2CCC[C@@H](C(=O)NC3CC3)C2)N1; > 99.5 µM
13. O=C(c1cc(Cl)ccc1NS(=O)(=O)c1ccc(Oc2ccccc2Cl)cc1)N1CCC[C@@H]1CO; 62.7 µM
14. COCCO[C@]1(C)C(=O)Nc2cc(F)cc(C(=O)Nc3ccc4c(c3)CNC4)c21; > 99.5 µM
15. CCNC(=O)[C@@H](NC(=O)OCc1ccccc1)c1ccc(OCc2ccccc2)cc1; > 99.5 µM
16. NCc1cccc(NC(=O)c2cncc(Cl)c2)c1; > 99.5 µM
17. CCOCCCN1Cc2ccc(NC(=O)c3cc(Cl)cc4[nH]ncc34)cc2C1; > 99.5 µM
18. Cc1ccc(C(=O)N[C@H](C(=O)Nc2cccc(CN)c2)c2ccc(OCc3ccccc3)cc2)s1; 97.7 µM
19. O=C(Nc1ccc2c(c1)CNC2)[C@H]1CCc2ccccc21; > 99.5 µM
20. NCc1cccc(NC(=O)c2cc(Cl)cc(Cl)c2)c1; > 99.5 µM

Hello, the source for this data is ChEMBL document CHEMBL5604063, in case you need it.
